Taken from the supplement of paper PMC6607015.

System: HeLa MZ
assayOverview: filipin (cholesterol) integrated intensity within LBPA endosomes, Z-score; higher = more cholesterol in LBPA endosomes
recordedConditions: compound concentration in added solution (µM; 5 µl added to 20 µl cells): 10; 18 h
Counter-ions that a name gives are not always drawn.
Label MET when filipin (z-score) is at or above -0.5; otherwise label NOT MET.

Data request: Hello, I need to know if CC(C(O)c1ccc(O)cc1)N1CCC(Cc2ccccc2)CC1 (stereo not drawn) [Ifenprodil tartrate] has measured filipin (z-score) not below -0.5. Thanks!
Data returned: MET

Data request: Hello, I need to know if CC(C)(C)C(=O)OCOC(=O)[C@@H]1N2C(=O)[C@@H](/N=C/N3CCCCCC3)[C@H]2SC1(C)C [Pivmecillinam hydrochloride] has measured filipin (z-score) not below -0.5. Thanks!
Data returned: MET

Data request: Hello, I need to know if CC(=O)O[C@]1(C(C)=O)CC[C@H]2[C@@H]3C=C(C)C4=CC(=O)CC[C@@H]4[C@H]3CC[C@@]21C [Nomegestrol acetate] has measured filipin (z-score) not below -0.5. Thanks!
Data returned: MET

Data request: Hello, I need to know if CC(C)(Oc1ccc(CCNC(=O)c2ccc(Cl)cc2)cc1)C(=O)O [Bezafibrate] has measured filipin (z-score) not below -0.5. Thanks!
Data returned: NOT MET

Data request: Hello, I need to know if COc1ccc(CC(C)NCC(O)c2ccc(O)c(NC=O)c2)cc1 (stereo not drawn) [Formoterol fumarate] has measured filipin (z-score) not below -0.5. Thanks!
Data returned: MET

Data request: Hello, I need to know if CCc1cc(C(N)=S)ccn1 [Ethionamide] has measured filipin (z-score) not below -0.5. Thanks!
Data returned: MET

Data request: Hello, I need to know if O=C(OCCOCCO)c1ccccc1Nc1cccc(C(F)(F)F)c1 [Etofenamate] has measured filipin (z-score) not below -0.5. Thanks!
Data returned: NOT MET

Data request: Hello, I need to know if Nc1ncnc2c1ncn2C1OC(COP(=O)(O)O)C(O)C1O (stereo not drawn) [Adenosine 5'-monophosphate monohydrate] has measured filipin (z-score) not below -0.5. Thanks!
Data returned: NOT MET

====

System: HeLa MZ
assayOverview: filipin (cholesterol) integrated intensity within LBPA endosomes, Z-score; higher = more cholesterol in LBPA endosomes
recordedConditions: compound concentration in added solution (µM; 5 µl added to 20 µl cells): 10; 18 h
Structures can show the parent of a compound that is named as a salt.
Label True when filipin (z-score) is at or above -0.5; otherwise label False.

Data request: Hello, I need to know if `Nc1ncnc2c1ncn2[C@@H]1O[C@H](CO)[C@@H](O)[C@@H]1O` has measured filipin (z-score) not below -0.5. Thanks!
Data returned: False

Data request: Hello, I need to know if CCCCNc1cc(C(=O)O)cc(S(N)(=O)=O)c1Oc1ccccc1 [Bumetanide] has measured filipin (z-score) not below -0.5. Thanks!
Data returned: False

Data request: Hello, I need to know if CN1CCN(CCCN2c3ccccc3Sc3ccc(Cl)cc32)CC1 [Prochlorperazine dimaleate] has measured filipin (z-score) not below -0.5. Thanks!
Data returned: True

Data request: Hello, I need to know if Nc1nc(NC2CC2)c2ncn([C@H]3C=C[C@@H](CO)C3)c2n1 [Abacavir Sulfate] has measured filipin (z-score) not below -0.5. Thanks!
Data returned: False

Data request: Hello, I need to know if CCN1CCN(C(=O)N[C@@H](C(=O)N[C@@H]2C(=O)N3[C@@H]2SC(C)(C)[C@@H]3C(=O)O)c2ccccc2)C(=O)C1=O [Piperacillin sodium salt] has measured filipin (z-score) not below -0.5. Thanks!
Data returned: True

Data request: Hello, I need to know if O=C1Cc2cc(CCN3CCN(c4nsc5ccccc45)CC3)c(Cl)cc2N1 [Ziprasidone Hydrochloride] has measured filipin (z-score) not below -0.5. Thanks!
Data returned: True

Data request: Hello, I need to know if CCCc1ncc(C[n+]2ccccc2C)c(N)n1 [Amprolium hydrochloride] has measured filipin (z-score) not below -0.5. Thanks!
Data returned: True
